Molecular target: human myosin-6 (M6-2R) (Homo sapiens, UniProt Q9UM54)
Test: actin-activated ATPase assay (NADH-coupled), biphasic inhibition; binding also by MST (data not shown)
value kind: Ki (µM)
Number only, in µM; omit the unit.

Fill blank: measured Ki of the compound Oc1c(I)cc(I)cc1I is ____. 0.8
